The reported numbers originate from patent US20230357429A1.

biological target: T1, TBD-21 (HC F108A); test: competition ELISA, peptide vs Fab binding to captured biotin-TROP2
T1 construct: Fab; also called HC F108A mutant
T1 sequence (VH, as listed by the source, chain 1 of 2): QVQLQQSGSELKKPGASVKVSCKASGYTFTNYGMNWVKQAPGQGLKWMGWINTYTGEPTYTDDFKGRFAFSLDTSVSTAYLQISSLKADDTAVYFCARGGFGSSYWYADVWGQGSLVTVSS
T1 sequence (VL, as listed by the source, chain 2 of 2): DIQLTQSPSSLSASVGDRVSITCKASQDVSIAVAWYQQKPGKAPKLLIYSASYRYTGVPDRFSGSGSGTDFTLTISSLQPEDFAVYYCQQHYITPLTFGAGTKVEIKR
Where no end group is shown, it is not given here.
Hi there, I'd appreciate the recorded IC50 for every entry that follows.
Numbers only; they are read as µM.

Lab note: measured IC50 of VDFCGLYHWPICYQVD (cysteine pairing not given here; also: biotinylated, site not given here) [Peptide-39] was 2.23

Lab note: measured IC50 of IDFCLIYNWPVCDT (cysteine pairing not given here; also: biotinylated, site not given here) [Peptide-63] was 5.89

Lab note: measured IC50 of VDFCYLYNWPVCSK (cysteine pairing not given here; also: biotinylated, site not given here) [Peptide-37] was 15.5

Lab note: measured IC50 of VDFCYQYGWPICSR (cysteine pairing not given here; also: biotinylated, site not given here) [Peptide-36] was 19.9

Lab note: measured IC50 of VDFCSIYHWPVCYV (cysteine pairing not given here; also: biotinylated, site not given here) [Peptide-38] was 3.54

Lab note: measured IC50 of EDFCYWYQWPICSD (cysteine pairing not given here; also: biotinylated, site not given here) [Peptide-35] was 19.2

Lab note: measured IC50 of VDFCGLYHWPICYQ (cysteine pairing not given here; also: biotinylated, site not given here) [Peptide-8] was 1.01

Lab note: measured IC50 of VDFCGLYHWPICYQVY (cysteine pairing not given here; also: biotinylated, site not given here) [Peptide-41] was 1.5

Lab note: measured IC50 of VDFCKIYSWPVCHQ (cysteine pairing not given here; also: biotinylated (site not given here)) [Peptide-25] was 6.73
